Tested on: Sporothrix schenkii
measurement.protocol: Antifungal activity in vitro, resazurin growth inhibition: Sporothrix schenkii (B62482)
Format: cell-based
measure.name: Inf. A: Sporothrix schenkii B62482, pIC50

Solved entries (count: 4):
Q. Any idea what Inf. A: Sporothrix schenkii B62482, pIC50 was measured for COc1ccc2oc(C3NCc4ccc(Cl)cc4-n4cccc43)cc2c1.Cl (racemic) ?
A. 4.80

Q. Item: Cl.FC(F)(F)c1ccc(C2NCc3c(Cl)cccc3-n3cccc32)cn1 (racemic)
A. <4.19

Q. Item: `Cc1cccc2c1CN=C(c1cc3ccccc3o1)c1cccn1-2`
A. 5.84

Q. Item: `Fc1cccc2c1CN=C(c1ccc(C(F)(F)F)nc1)c1cccn1-2`
A. <4.19

More entries:
Q. Any idea what Inf. A: Sporothrix schenkii B62482, pIC50 was measured for `Cc1ncc(C2=NCc3c(C)cccc3-n3cccc32)cn1` ?
A. <4.19

Q. Item: `FC(F)(F)c1ncc(C2=NCc3c(Cl)cc(Cl)cc3-n3cccc32)cn1`
A. <4.19

Q. Item: `COc1cccc2cc(C3=NCc4c(Cl)cc(Cl)cc4-n4cccc43)oc12`
A. <4.19

Q. Item: Fc1ccc2oc(C3NCc4c(Cl)cccc4-n4cccc43)cc2c1 (racemic)
A. <4.19

Q. Item: `Fc1cc(F)c2c(c1)-n1cccc1C(c1ccc3occ(Cl)c3c1)=NC2`
A. <4.19

Q. Item: Br.Clc1ccc2c(c1)CNC(c1ccncc1)c1cccn1-2 (racemic)
A. <4.19

Q. Item: COc1ccc2oc(C3NCc4c(Cl)cccc4-n4cccc43)cc2c1.Cl (racemic)
A. <4.19

Q. Item: `Cc1ccc2cc(C3=NCc4c(Cl)cccc4-n4cccc43)oc2c1`
A. <4.19

Q. Item: Cl.c1ccc2c(c1)CNC(c1cc3ccccc3o1)c1cccn1-2 (racemic)
A. <4.19

Q. Item: `Clc1cccc2c1-n1cccc1C(c1ccc3ncsc3c1)=NC2`
A. 5.15

Q. Item: `CCn1cc(C2=NCc3c(Cl)ccc(Cl)c3-n3cccc32)cn1`
A. <4.19

Q. Item: `CC(=O)c1ccc(C2=NCc3c(F)cc(F)cc3-n3cccc32)cn1`
A. <4.19

---

Test system: Trichophyton mentagrophytes
measurement.protocol: Antifungal activity in vitro, resazurin growth inhibition: Trichophyton mentagrophytes (B70554)
Type: cell-based
measure.name: Inf. G: Trichophyton mentagrophytes B70554, pIC50

Q. Any idea what Inf. G: Trichophyton mentagrophytes B70554, pIC50 was measured for Cl.Clc1cccc2c1CNC(c1nc3ccccc3s1)c1cccn1-2 (racemic) ?
A. 6.00

Q. Item: `Cn1ccc2ccc(C3=NCc4c(Cl)cccc4-n4cccc43)cc21`
A. 6.17

Q. Item: `Clc1ccc2c(c1)-n1cccc1C(c1ccc3ncsc3c1)=NC2`
A. 6.04

---

Consider the following molecules and their measured Inf. D: Candida parapsilosis B66126, pIC50 readings.
Test system: Candida parapsilosis
measurement.protocol: Antifungal activity in vitro, resazurin growth inhibition: Candida parapsilosis (B66126)
Assay type: cell-based

Solved entries (count: 10):
Q. Any idea what Inf. D: Candida parapsilosis B66126, pIC50 was measured for `Clc1cccc2c1CN=C(c1cc3ccccc3s1)c1cccn1-2` ?
A. <4.19

Q. Item: `Cc1ccc2cc(C3=NCc4c(F)cccc4-n4cccc43)ccc2n1`
A. <4.19

Q. Item: Br.Clc1cccc2c1-n1cccc1C(c1ccncc1)NC2 (racemic)
A. <4.19

Q. Item: `Clc1ccc(Cl)c2c1CN=C(c1ccc3ccoc3c1)c1cccn1-2`
A. <4.19

Q. Item: `FC(F)(F)c1ccc(C2=NCc3c(Cl)cc(Cl)cc3-n3cccc32)cn1`
A. <4.19

Q. Item: `Cc1cc(C2=NCc3ccccc3-n3cccc32)ccn1`
A. <4.49

Q. Item: `Clc1ccc2oc(C3=NCc4c(Cl)cccc4-n4cccc43)cc2c1`
A. <4.19

Q. Item: Cl.Clc1cc2oc(C3NCc4c(Cl)cccc4-n4cccc43)cc2cn1 (racemic)
A. <4.19

Q. Item: `Cc1cc(C2=NCc3c(Cl)cccc3-n3cccc32)ccn1`
A. <4.19

Q. Item: `FC(F)(F)c1ncc(C2=NCc3c(Cl)cc(Cl)cc3-n3cccc32)cn1`
A. <4.19

More entries:
Q. Any idea what Inf. D: Candida parapsilosis B66126, pIC50 was measured for Cc1cccc2c1CNC(c1cc3ccccc3o1)c1cccn1-2.Cl (racemic) ?
A. <4.19

Q. Item: Cl.Fc1cccc2c1CNC(c1ccc(C(F)(F)F)nc1)c1cccn1-2 (racemic)
A. <4.19

Q. Item: `Cn1ccc2cc(C3=NCc4c(Cl)cccc4-n4cccc43)ccc21`
A. 5.09

Q. Item: `CCn1cc(C2=NCc3cc(Cl)cc(Cl)c3-n3cccc32)cn1`
A. 4.23

Q. Item: `Cc1cccc2c1-n1cccc1C(c1cc3ccccc3o1)=NC2`
A. <4.19

Q. Item: `COc1ccc2oc(C3=NCc4c(Cl)cccc4-n4cccc43)cc2c1`
A. <4.19

Q. Item: `Cc1nc2ccc(C3=NCc4c(Cl)cccc4-n4cccc43)cc2o1`
A. <4.19

Q. Item: Cl.FC(F)(F)c1ccc(C2NCc3c(Cl)cccc3-n3cccc32)nn1 (racemic)
A. <4.19

Q. Item: Cc1ncc(C2NCc3c(Cl)cccc3-n3cccc32)cn1.Cl (racemic)
A. <4.19

Q. Item: Cc1ccc(Cl)c2c1-n1cccc1C(c1cnc(C(F)(F)F)nc1)NC2.Cl (racemic)
A. <4.90

Q. Item: `Fc1cccc2c1CN=C(c1ccc3sccc3c1)c1cccn1-2`
A. 6.17

Q. Item: Cc1cccc(C2NCc3c(Cl)cccc3-n3cccc32)n1 (racemic)
A. <4.49

Q. Item: `Fc1cc(Cl)c2c(c1)-n1cccc1C(c1ccc(Cl)nc1)=NC2`
A. 5.07

Q. Item: `Fc1cccc2cc(C3=NCc4c(Cl)cccc4-n4cccc43)sc12`
A. <4.19

Q. Item: Cc1ccc2cc(C3NCc4ccccc4-n4cccc43)oc2c1.Cl (racemic)
A. <4.19

Q. Item: `Fc1ccc2oc(C3=NCc4c(Cl)cc(Cl)cc4-n4cccc43)cc2c1`
A. <4.19

Q. Item: `Clc1cccc2c1CN=C(c1ccc3snnc3c1)c1cccn1-2`
A. <4.19

Q. Item: `Cc1nc2cc(C3=NCc4c(Cl)cccc4-n4cccc43)ccc2s1`
A. <4.19

Q. Item: `Cc1ccc2cc(C3=NCc4c(Cl)cccc4-n4cccc43)ccc2n1`
A. <4.19

Q. Item: `Fc1cccc2c1CN=C(c1ccc(C(F)(F)F)nc1)c1cccn1-2`
A. <4.19

Q. Item: CCc1ccc(C2NCc3c(Cl)cccc3-n3cccc32)nc1.Cl (racemic)
A. <4.19

Q. Item: `Fc1cccc2cc(C3=NCc4c(Cl)cccc4-n4cccc43)oc12`
A. <4.19

---

System: Trichophyton rubrum
measurement.protocol: Antifungal activity in vitro, resazurin growth inhibition: Trichophyton rubrum (B68183)
Assay type: cell-based
measure.name: Inf. C: Trichophyton rubrum B68183, pIC50

Q. Any idea what Inf. C: Trichophyton rubrum B68183, pIC50 was measured for Clc1ccc2c(c1)-n1cccc1C(c1ccc3ncsc3c1)=NC2 [Compound 185] ?
A. 6.73

Q. Item: FC(F)(F)c1ccc(C2=NCc3c(Cl)cc(Cl)cc3-n3cccc32)cn1 [Compound 91]
A. 6.27

Q. Item: Cl.Clc1cccc2c1CNC(c1ccc3scc(Cl)c3c1)c1cccn1-2 (racemic) [Compound 58]
A. 6.29

---

System: Trichophyton mentagrophytes
measurement.protocol: Antifungal activity in vitro, resazurin growth inhibition: Trichophyton mentagrophytes (B70554)
Format: cell-based
measure.name: Inf. G: Trichophyton mentagrophytes B70554, pIC50

Q. Any idea what Inf. G: Trichophyton mentagrophytes B70554, pIC50 was measured for Clc1cccc2c1CN=C(c1ccc3ncsc3c1)c1cccn1-2 [Compound 184] ?
A. 6.51

Q. Item: Cc1cccc2oc(C3NCc4c(Cl)cccc4-n4cccc43)cc12.Cl (racemic) [Compound 36]
A. 5.21

(a) CCn1cc(C2=NCc3c(Cl)ccc(Cl)c3-n3cccc32)cn1 [Compound 61]
(b) Fc1cccc2cc(C3=NCc4c(Cl)cccc4-n4cccc43)oc12 [Compound 127]
Q. Of a and b , which one carries the higher reported Inf. G: Trichophyton mentagrophytes B70554, pIC50? Write down the label of the entry you select.
A. b
(b: 6.40, a: 4.39)

---

System: Scedosporium prolificans
measurement.protocol: Antifungal activity in vitro, resazurin growth inhibition: Scedosporium prolificans (IHEM21157)
Assay type: cell-based
Experimental: The standard susceptibility screen is performed in 96-well plates (U-bottom, Greiner Bio-One). Serial dilutions (2-fold or 4-fold) of 20 mM compound stock solutions are made in 100% DMSO, followed by an intermediate dilution step in water. These serial dilutions (10 μl) are then spotted onto test-plates that can be stored in the dark at 4° C. for a maximum period of 2 weeks. An adequate broad dose-range is included with 64 μM as the highest in-test concentration. […]
measure.name: Inf. I: Scedosporium prolificans IHEM21157, pIC50

Q. Any idea what Inf. I: Scedosporium prolificans IHEM21157, pIC50 was measured for `Clc1ccc2c(c1)-n1cccc1C(c1cnc3ccccc3c1)=NC2` ?
A. 6.00

Q. Item: `Clc1cccc2c1CN=C(c1ccc3ncsc3c1)c1cccn1-2`
A. 6.15

Q. Item: `Clc1cccc2c1CN=C(c1ccc3occ(Cl)c3c1)c1cccn1-2`
A. 5.15

Q. Item: `Clc1cccc2c1CN=C(c1ccc3ccccc3n1)c1cccn1-2`
A. 5.00

Q. Item: `CC(F)(F)c1ccc(C2=NCc3c(Cl)cccc3-n3cccc32)cn1`
A. 6.24

Q. Item: `Cc1cccc2c1-n1cccc1C(c1cc3ccccc3s1)=NC2`
A. 6.44

Q. Item: `Cc1ccc2cc(C3=NCc4c(Cl)cccc4-n4cccc43)oc2c1`
A. 6.32

Q. Item: `COc1ccc2oc(C3=NCc4c(Cl)cccc4-n4cccc43)cc2c1`
A. 4.80

Q. Item: `Cc1cccc2c1-n1cccc1C(c1cc3ccccc3o1)=NC2`
A. 5.97

Q. Item: Fc1ccc2oc(C3NCc4c(Cl)cccc4-n4cccc43)cc2c1 (racemic)
A. 6.38

Q. Item: `Clc1ccc2c(c1)-n1cccc1C(c1ccc3ncsc3c1)=NC2`
A. 5.16

Q. Item: `Fc1cccc2c1CN=C(c1ccc3sccc3c1)c1cccn1-2`
A. 5.56

Q. Item: Cc1cccc2c1CNC(c1cc3cc(Cl)ccc3o1)c1cccn1-2.Cl (racemic)
A. 5.66

Q. Item: Cc1cccc2c1-n1cccc1C(c1cc3ccccc3s1)NC2.Cl (racemic)
A. 5.47

Q. Item: `Clc1cccc2c1CN=C(c1cnc3occc3c1)c1cccn1-2`
A. 6.27

Q. Item: `FC(F)(F)c1ccc(C2=NCc3c(Cl)cc(Cl)cc3-n3cccc32)cn1`
A. 5.28

Q. Item: `Fc1cccc2cc(C3=NCc4c(Cl)cc(Cl)cc4-n4cccc43)oc12`
A. 5.79

Q. Item: `Clc1cccc2c1-n1cccc1C(c1ccc3ncsc3c1)=NC2`
A. 5.40

Q. Item: `Cc1cccc2c1CN=C(c1cc3cc(Cl)ccc3o1)c1cccn1-2`
A. 4.62

Q. Item: `CCc1ccc(C2=NCc3c(Cl)cc(Cl)cc3-n3cccc32)cn1`
A. 5.46

Q. Item: `Cc1cccc2c1CN=C(c1ccc(C(F)(F)F)nc1)c1cccn1-2`
A. 6.14

Q. Item: `Clc1cccc2c1-n1cccc1C(c1ccc3sccc3c1)=NC2`
A. 4.80

Q. Item: `Fc1ccc2oc(C3=NCc4c(Cl)cccc4-n4cccc43)cc2c1`
A. 6.44

Q. Item: `CC(F)(F)c1ccc(C2=NCc3c(F)cc(F)cc3-n3cccc32)cn1`
A. 5.77

Q. Item: `Clc1ccc2c(c1)-n1cccc1C(c1cc3ccccc3o1)=NC2`
A. 6.17

Q. Item: `Clc1cccc2c1CN=C(c1ccc3ccsc3c1)c1cccn1-2`
A. 5.45

Q. Item: `Cc1cccc2c1CN=C(c1cc3cccc(C)c3o1)c1cccn1-2`
A. 5.99

Q. Item: `Fc1cc(F)c2c(c1)-n1cccc1C(c1cc3cc(Cl)cnc3o1)=NC2`
A. 6.00

Q. Item: `Fc1cccc2cc(C3=NCc4c(Cl)cccc4-n4cccc43)sc12`
A. 6.51

Just for reference, patent US9493468B2 is where these values come from.
